Species on record: Rattus norvegicus
protocol_description: Stimulation of levator ani muscle weight in Sprague-Dawley rat at 2 mg/day relative to testosterone
Type: functional
Kindly state Activity for each of the entries shown.

Report Activity for each item below.
1. CCOC(=O)C1=NN2C(=O)N(c3ccc([N+](=O)[O-])c(C(F)(F)F)c3)C(=O)C2(C)C1 (stereo not drawn)
2. CC12CC=NN1C(=O)N(c1ccc(C#N)c(C(F)(F)F)c1)C2=O (stereo not drawn)

1. <10%
2. <10%

Can you look up the measured Activity of CCOC(=O)C1=NN2C(=O)C(=O)N(c3ccc(C#N)c(C(F)(F)F)c3)C(=O)C2(C)C1 (stereo not drawn) for me?
<10%

====

Kindly state Inhibition for each of the entries shown.
Test system: Rattus norvegicus
protocol_description: Inhibition of prostate weight in Sprague-Dawley rat at 2 mg/day, po relative to control
Type: functional, Prostate gland
Give bare numbers, in %.

Field: example entries. Status: answers known.
1. C[C@]12CC(C(F)(F)F)=NN1C(=O)N(c1ccc(C#N)c(C(F)(F)F)c1)C2=O | 21
2. C[C@@]12CC(C(F)(F)F)=NN1S(=O)(=O)N(c1ccc(C#N)c(C(F)(F)F)c1)C2=O | 28
3. CC(O)(CS(=O)(=O)c1ccc(F)cc1)C(=O)Nc1ccc(C#N)c(C(F)(F)F)c1 (configuration not stated) [BICALUTAMIDE] | 70

Report Inhibition for each item below.
1. CCOC(=O)C1=NN2C(=O)C(=O)N(c3ccc(C#N)c(C(F)(F)F)c3)C(=O)C2(C)C1 (configuration not stated)
2. C[C@@]12CCCN1C(=S)N(c1ccc(Cl)c(Cl)c1)C2=O
3. CC12CNC(=O)N1C(=O)N(c1ccc(C#N)c(C(F)(F)F)c1)C2=O (configuration not stated)

1. 15
2. 17
3. 79

Can you look up the measured Inhibition of CC12CC=NN1C(=O)N(c1ccc(C#N)c(C(F)(F)F)c1)C2=O (configuration not stated) for me?
26

====

Kindly state Inhibition for each of the entries shown.
System: Rattus norvegicus
protocol_description: Inhibition of prostate weight in Sprague-Dawley rat at 2 mg/day, po relative to control
Type: functional, Prostate gland
Answers are plain numbers, in %.

Field: example entries. Status: answers known.
1. C[C@@]12CCCN1C(=O)N(c1ccc(Cl)c(C(F)(F)F)c1)C2=O | 32
2. CN1CC2(C)C(=O)N(c3ccc(Cl)c(C(F)(F)F)c3)C(=O)N2C1=O (centres undefined) | 77
3. C[C@@]12CCCN1C(=O)N(c1ccc(C#N)c(C(F)(F)F)c1)C2=O | 69

Can you look up the measured Inhibition of CC(=O)Nc1ccc(C2=NN3C(=O)N(c4ccc(C#N)c(C(F)(F)F)c4)C(=O)C3(C)C2)cc1 (centres undefined) for me?
25
